B1: Twister Ribozyme (parent)
chain: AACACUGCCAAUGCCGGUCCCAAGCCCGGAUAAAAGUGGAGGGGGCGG

Variants of: B1
ASSAY SUMMARY: self-cleavage, relative activity (ratio to wild type); higher = more cleavage; co-transcriptional
Decide using self-cleavage: a value greater than or equal to 0.6 is yes, a smaller one is no.

{"columns": ["MUTATION NOTATION", "ASSIGNED CATEGORY"],
 "data": [
  ["A4G U6G", "no"],
  ["C15A G29C", "no"],
  ["G36A C46U", "yes"],
  ["C8A C26G", "no"]
]}

Assess whether reported self-cleavage for A10C sits at 0.6 or higher.
yes

Is reported self-cleavage greater than or equal to 0.6 here: C20A U37A
no

Does self-cleavage meet or surpass 0.6 for A1C C8G ?
no

State whether the measured self-cleavage reaches 0.6, counting equality as reaching it, for A35C
yes

In plain terms: is recorded self-cleavage at least 0.6 for C3A A11U ?
no

Could you please find out whether C15A G44U has self-cleavage that meets 0.6 or exceeds it?
yes

Could you verify whether the entry C9A G29C shows self-cleavage of no less than 0.6?
no

Determine whether measured self-cleavage meets or exceeds 0.6 for U31C G48U
yes

Does self-cleavage meet or surpass 0.6 for C5G G44U ?
yes

Does the variant A1U A10U have recorded self-cleavage that is 0.6 or more?
no

Confirm if self-cleavage reported for the variant A1U G47A is 0.6 or above.
no

Please tell me: is the variant G7U C26U at or over 0.6 in terms of self-cleavage?
no

Dear colleague, could you confirm whether A11U C46G has self-cleavage at or above 0.6?
yes

Assess whether reported self-cleavage for C3G G36C sits at 0.6 or higher.
no

Form field: self-cleavage at least 0.6? Entry: C5A G41C
no

Has C25U G47U a recorded self-cleavage greater than or equal to 0.6?
no

Record G24A G39C ; criterion: self-cleavage no lower than 0.6. Met?
no
